// provenance: PubChem BioAssay (NCI)

Tested on: K-562 leukemia
Assay: NCI-60 one-dose screen, 48 h (100 = growth as untreated, 0 = no growth, -100 = all killed)
Settings: 10 µM unless noted
About 83,000 compounds went through this panel and 20% of them were active in at least one assay; those are over-represented in the sample as a whole. Calls of active or inactive are those of the source. How the source made its calls: active means growth percent below 10; inactive means the rest.
growth values by entry

As a guide, the following entries are already answered.
> print(dat)
                                 smiles.str   observed.result
1  CN(C)c1ccc(Nc2c3ccccc3nc3cc(NC(=O)CCN4CCCC4)ccc23)cc1   -4.43% (active)
2      CCOC(=O)/C(C#N)=C1/NNC(=Nc2cccnc2)S1  99.8% (inactive)
3  Cc1ccc(NC(=O)Cc2ccc(/C=C/C(=O)c3ncc[nH]3)cc2)cc1    8.84% (active)
4  COc1cc2c(=O)n(CCN(C)C)c3c4cc5c(cc4ccc3c2cc1OC)OCO5  12.1% (inactive)

We now examine a further compound.
Param readout= growth; system= K-562 leukemia; entry= `Nc1c(C(=O)Nc2ccnc3ccccc23)sc2nc3c(cc12)CN(Cc1ccccc1)CC3` ; returns value. 38.5% (inactive)
